system: Histone H4 acetylation in T24 human bladder cancer cells; test: Histone H4 acetylation in whole cells by immunoblots; format: cell-based; conditions: ratio of EC50 of compound to EC50 of control MS-275, 16 h
PARAMETER: H4-Ac T24 EC vs. MS-275

                                   compound       reported_value
0  COc1cccc(CCNc2ccnc(NCc3ccc(C(=O)Nc4ccccc4N)cc3)n2)c1 [10c]  v (“v” indicates 1)
1  CSc1nc(NCc2ccc(C(=O)Nc3ccccc3N)cc2)cc(-c2cccnc2)n1 [61a]  v (“v” indicates 1)

----------
Overview of recorded IC50 for various molecules
molecular target: cloned recombinant human HDAC-1 enzyme (Homo sapiens); experiment: HDAC-1 enzymatic inhibition, Assay 1 ([3H]-acetylated histone substrate); conditions: Assay 1: [3H]-labeled acetylated histone substrate, recombinant hHDAC-1
Sequence (Q13547 whole entry): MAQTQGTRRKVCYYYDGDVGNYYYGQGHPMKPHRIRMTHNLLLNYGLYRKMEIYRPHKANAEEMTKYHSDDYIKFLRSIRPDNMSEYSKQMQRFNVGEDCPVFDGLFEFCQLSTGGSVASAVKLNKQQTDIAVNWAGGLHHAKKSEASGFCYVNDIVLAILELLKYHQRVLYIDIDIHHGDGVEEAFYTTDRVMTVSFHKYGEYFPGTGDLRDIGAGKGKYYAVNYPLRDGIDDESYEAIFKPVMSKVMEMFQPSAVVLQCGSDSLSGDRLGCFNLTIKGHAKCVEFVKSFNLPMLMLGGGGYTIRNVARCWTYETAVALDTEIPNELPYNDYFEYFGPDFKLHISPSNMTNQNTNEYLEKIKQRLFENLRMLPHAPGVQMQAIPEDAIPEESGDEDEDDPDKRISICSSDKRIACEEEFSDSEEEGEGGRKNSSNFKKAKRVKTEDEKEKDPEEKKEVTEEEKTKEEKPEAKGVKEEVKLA

Some molecules with recorded IC50:
In [3]: df
Out[3]:
                                   molecule  parameter   reported_value
0  COc1cccc(CCNc2ccnc(NCc3ccc(C(=O)Nc4ccccc4N)cc3)n2)c1 [10c]       IC50  1000 to 5000 nM
1  CN(C)CCOc1ccc2nc(NCc3ccc(C(=O)Nc4ccccc4N)cc3)sc2c1       IC50  1000 to 5000 nM

Now for the molecule whose IC50 we want.
Req: Query (molecule): Nc1ccccc1NC(=O)c1ccc(CNc2cc(-c3cccnc3)ncn2)cc1 [61b] ; field requested: IC50
Resp: 1000 to 5000 nM

----------
tested on: HCT116 cells; experiment: MTT assay; assay type: cell-based; details: Homo sapiens, HCT-116, 72 hours
pIC50: −log10 of the molar value.
PARAMETER: pIC50

>>> print(df.to_string())
                                   compound  target_under_test  parameter  reported_value
0  Nc1ccccc1NC(=O)c1ccc(CNc2ccnc(-c3cccnc3)n2)cc1       HCT116 cells      pIC50    6.00 to 7.00
1  Nc1ccccc1NC(=O)c1ccc(CNc2ncc(-c3cccnc3)cn2)cc1 [13e]       HCT116 cells      pIC50    6.00 to 7.00
2  Nc1ccccc1NC(=O)c1ccc(CNc2nccc(-c3ccccn3)n2)cc1 [26b]       HCT116 cells      pIC50          ≥ 7.00
3  Nc1ccccc1NC(=O)c1ccc(N2CC[C@H](Oc3ccc4c(c3)OCO4)C2)cc1       HCT116 cells      pIC50          < 5.30
4  Nc1ccccc1NC(=O)c1ccc(CNc2cncc(-c3cccnc3)n2)cc1       HCT116 cells      pIC50    6.00 to 7.00

Req: Query (compound): COC(=O)c1ccc(O[C@H]2CCN(c3ccc(C(=O)Nc4ccccc4N)cc3)C2)cc1 ; field requested: pIC50
Resp: 6.00 to 7.00

Req: Nc1ccccc1NC(=O)c1ccc(N2CC[C@H](Nc3ccccc3)C2)cc1 , same question.
Resp: 6.00 to 7.00

Req: COc1cc(O[C@H]2CCN(c3ccc(C(=O)Nc4ccccc4N)cc3)C2)cc(OC)c1OC , same question.
Resp: 6.00 to 7.00

Req: Nc1ccccc1NC(=O)c1ccc(N2CC[C@H](Oc3ccc(C(=O)O)cc3)C2)cc1 , same question.
Resp: < 5.30

Req: Nc1ccccc1NC(=O)c1ccc(N2CC[C@H](Sc3ccccn3)C2)cc1 , same question.
Resp: 6.00 to 7.00
